procedure details: Measurement of log P values by HPLC on reversed phase columns (EEC directive 79/831 Annex V.A8)
Format: physicochemical
cond: method [a]: LC-MS at pH 2.7, 0.1% formic acid in water / acetonitrile, linear gradient 10% to 95% acetonitrile; Table 1 active ingredients
Below is a list of entries, each paired with its recorded logP value.
property measured: logP

> print(dat)
                                   compound  property.measured  obs.value
1  CC1CCC(C)(C)c2cccc(NC(=O)c3c(C(F)F)nn(C)c3Cl)c21 (racemic) [Example 4]               logP    4.14[a]
2  CC1CCc2c(NC(=O)c3c(C(F)F)nn(C)c3Cl)cccc2C1C (stereo not drawn) [Example 7]               logP    4.09[a]
3  Cn1nc(C(F)F)c(C(=O)Nc2cccc3c2CC(C)(C)CC3)c1Cl [Example 14]               logP     3.9[a]
4  Cn1nc(C(F)F)c(C(=O)Nc2cccc3c2C(C)(C)CCC3)c1F [Example 29]               logP    3.44[a]
5  CC1CCc2c(NC(=O)c3c(C(F)F)nn(C)c3F)cccc2C1C (stereo not drawn) [Example 8]               logP    3.83[a]
6  CC1c2cccc(NC(=O)c3c(C(F)F)nn(C)c3Cl)c2CCC1(C)C (racemic) [Example 11]               logP    4.39[a]
7  CCON=C1CCCc2c(NC(=O)c3c(C(F)F)nn(C)c3F)cccc21 [Example 18]               logP    3.31[a]
8  Cn1nc(C(F)F)c(C(=O)Nc2cccc3c2CC(C)(C)CC3)c1F [Example 13]               logP    3.72[a]
9  CON=C1CCCc2c(NC(=O)c3c(C(F)F)nn(C)c3Cl)cccc21 [Example 28]               logP    3.09[a]

====

Measured logP values are reported for all entries that follow.
procedure details: Measurement of log P values by HPLC on reversed phase columns (EEC directive 79/831 Annex V.A8)
Assay type: physicochemical
cond: method [a]: LC-MS at pH 2.7, 0.1% formic acid in water / acetonitrile, linear gradient 10% to 95% acetonitrile; Table 1 active ingredients
property measured: logP

> print(dat)
                                   compound  obs.value
1  Cn1nc(C(F)F)c(C(=O)Nc2cccc3c2CCCC3(C)C)c1Cl    3.89[a]
2  Cn1nc(C(F)F)c(C(=S)Nc2cccc3c2CCC(C)(C)C3)c1F    3.99[a]
3  CC1CCC(C)(C)c2cccc(NC(=O)c3c(C(F)F)nn(C)c3F)c21 (racemic)    3.92[a]
4  CCON=C1CCCc2c(NC(=O)c3c(C(F)F)nn(C)c3Cl)cccc21    3.55[a]
5  CON=C1CCCc2c(NC(=O)c3c(C(F)F)nn(C)c3Br)cccc21    3.13[a]

====

procedure details: Measurement of log P values by HPLC on reversed phase columns (EEC directive 79/831 Annex V.A8)
Format: physicochemical
cond: reversed phase HPLC column; method [a]: LC-MS at pH 2.7, 0.1% formic acid in water / acetonitrile, linear gradient 10% to 95% acetonitrile; Table 2 intermediates of formula (III-a); read-out: logP
property measured: chromatographic logP

> print(dat)
            smiles.entry  obs.value
1  CC1(C)CCCc2c(N)cccc21       1.69
2  CC1(C)CCc2c(N)cccc2C1       1.86

====

# Eff. % values compiled below
Test system: Alternaria brassicae
procedure details: In vivo preventive test on Alternaria brassicae (leaf spot on radish)
cond: dose of 500 ppm; preventive spray on radish plants; grading 6 days after contamination vs control plants
property measured: Eff. % (%)

> print(dat)
                                    compound  property.measured  obs.value
 1  CON=C1CCCc2c(NC(=O)c3c(C(F)F)nn(C)c3F)cccc21 [Example 19]             Eff. %         96
 2  Cn1nc(C(F)F)c(C(=O)Nc2cccc3c2CCCC3(C)C)c1F [Example 1]             Eff. %         93
 3  CC1CCC(C)(C)c2cccc(NC(=O)c3c(C(F)F)nn(C)c3Cl)c21 (racemic) [Example 4]             Eff. %         92
 4  CCON=C1CCCc2c(NC(=O)c3c(C(F)F)nn(C)c3F)cccc21 [Example 18]             Eff. %         83
 5  Cn1nc(C(F)F)c(C(=O)Nc2cccc3c2CCC(C)(C)C3)c1F [Example 22]             Eff. %         80
 6  CC1CCC(C)(C)c2cccc(NC(=O)c3c(C(F)F)nn(C)c3F)c21 (racemic) [Example 3]             Eff. %         93
 7  Cn1nc(C(F)F)c(C(=O)Nc2ccc(F)c3c2CCCC3(C)C)c1F [Example 24]             Eff. %         75
 8  Cn1nc(C(F)F)c(C(=O)Nc2cccc3c2CC(C)(C)CC3)c1Cl [Example 14]             Eff. %         71
 9  CC1CCc2c(NC(=O)c3c(C(F)F)nn(C)c3Cl)cccc2C1C (stereo not drawn) [Example 7]             Eff. %         97
10  CC1CCc2c(NC(=O)c3c(C(F)F)nn(C)c3F)cccc2C1C (stereo not drawn) [Example 8]             Eff. %         97
11  Cn1nc(C(F)F)c(C(=O)Nc2cccc3c2CCC(C)(C)C3)c1Cl [Example 25]             Eff. %         70
12  C=C1c2cccc(NC(=O)c3c(C(F)F)nn(C)c3F)c2CCC1(C)C [Example 6]             Eff. %         97

====

Listing: logP of selected compounds
procedure details: Measurement of log P values by HPLC on reversed phase columns (EEC directive 79/831 Annex V.A8)
Format: physicochemical
cond: method [a]: LC-MS at pH 2.7, 0.1% formic acid in water / acetonitrile, linear gradient 10% to 95% acetonitrile; Table 1 active ingredients
property measured: logP

> print(dat)
                                    compound  property.measured  obs.value
 1  Cn1nc(C(F)F)c(C(=S)Nc2cccc3c2CCC(C)(C)C3)c1Br               logP    4.11[a]
 2  Cn1nc(C(F)F)c(C(=O)Nc2ccc(F)c3c2CCCC3(C)C)c1F               logP    3.76[a]
 3  CON=C1CCCc2c(NC(=O)c3c(C(F)F)nn(C)c3F)cccc21               logP    2.86[a]
 4  Cn1nc(C(F)F)c(C(=O)Nc2cccc3c2CCC(C)(C)C3)c1F               logP    3.79[a]
 5  C=C1c2cccc(NC(=O)c3c(C(F)F)nn(C)c3Cl)c2CCC1(C)C               logP    4.14[a]
 6  CC1CCc2c(NC(=O)c3c(C(F)F)nn(C)c3Cl)cccc2C1(C)C (racemic)               logP    4.29[a]
 7  Cn1nc(C(F)F)c(C(=O)Nc2cccc3c2C(C)(C)CCC3)c1Cl               logP    3.69[a]
 8  Cn1nc(C(F)F)c(C(=O)Nc2cccc3c2CCC(C)(C)C3)c1Br               logP    4.04[a]
 9  CCON=C1CCCc2c(NC(=O)c3c(C(F)F)nn(C)c3Br)cccc21               logP    3.57[a]
10  Cn1nc(C(F)F)c(C(=S)Nc2ccc(F)c3c2CCCC3(C)C)c1Cl               logP    4.24[a]
11  C=C1c2cccc(NC(=O)c3c(C(F)F)nn(C)c3F)c2CCC1(C)C               logP    3.87[a]
12  Cn1nc(C(F)F)c(C(=O)Nc2ccc(F)c3c2CCCC3(C)C)c1Cl               logP    4.01[a]
13  CC1c2cccc(NC(=O)c3c(C(F)F)nn(C)c3F)c2CCC1(C)C (racemic)               logP    4.11[a]

====

Catalogue of Eff. % readings, one per entry.
System: Uromyces appendiculatus
procedure details: In vivo preventive test on Uromyces appendiculatus (bean rust)
cond: dose of 500 ppm; preventive spray on bean plants; grading 11 days after contamination vs control plants
property measured: Eff. % (%)

> print(dat)
                                    molecule  property.measured  obs.value
 1  Cn1nc(C(F)F)c(C(=O)Nc2cccc3c2CC(C)(C)CC3)c1F             Eff. %        100
 2  Cn1nc(C(F)F)c(C(=O)Nc2cccc3c2CCC(C)(C)C3)c1F             Eff. %        100
 3  Cn1nc(C(F)F)c(C(=O)Nc2cccc3c2CCC(C)(C)C3)c1Cl             Eff. %        100
 4  CC1CCC(C)(C)c2cccc(NC(=O)c3c(C(F)F)nn(C)c3F)c21 (racemic)             Eff. %        100
 5  C=C1c2cccc(NC(=O)c3c(C(F)F)nn(C)c3Cl)c2CCC1(C)C             Eff. %        100
 6  Cn1nc(C(F)F)c(C(=O)Nc2cccc3c2CC(C)(C)CC3)c1Cl             Eff. %         99
 7  Cn1nc(C(F)F)c(C(=O)Nc2cccc3c2CCC(C)(C)C3)c1Br             Eff. %         96
 8  Cn1nc(C(F)F)c(C(=O)Nc2ccc(F)c3c2CCCC3(C)C)c1F             Eff. %        100
 9  CC1c2cccc(NC(=O)c3c(C(F)F)nn(C)c3F)c2CCC1(C)C (racemic)             Eff. %        100
10  CC1CCC(C)(C)c2cccc(NC(=O)c3c(C(F)F)nn(C)c3Cl)c21 (racemic)             Eff. %         99
11  Cn1nc(C(F)F)c(C(=O)Nc2cccc3c2CCCC3(C)C)c1Cl             Eff. %        100
12  C=C1c2cccc(NC(=O)c3c(C(F)F)nn(C)c3F)c2CCC1(C)C             Eff. %         97
13  CC1CCc2c(NC(=O)c3c(C(F)F)nn(C)c3F)cccc2C1C (centres unmarked)             Eff. %         99
14  Cn1nc(C(F)F)c(C(=S)Nc2ccc(F)c3c2CCCC3(C)C)c1Cl             Eff. %        100
15  CCON=C1CCCc2c(NC(=O)c3c(C(F)F)nn(C)c3F)cccc21             Eff. %         81
16  CC1c2cccc(NC(=O)c3c(C(F)F)nn(C)c3Cl)c2CCC1(C)C (racemic)             Eff. %        100
17  Cn1nc(C(F)F)c(C(=O)Nc2cccc3c2CCCC3(C)C)c1F             Eff. %        100
18  CC1CCc2c(NC(=O)c3c(C(F)F)nn(C)c3Cl)cccc2C1C (centres unmarked)             Eff. %        100
19  CC1CCc2c(NC(=O)c3c(C(F)F)nn(C)c3Cl)cccc2C1(C)C (racemic)             Eff. %         95
20  Cn1nc(C(F)F)c(C(=O)Nc2ccc(F)c3c2CCCC3(C)C)c1Cl             Eff. %        100
